Data provenance: patent US20190083521A1

Test system: MV4-11 (MLL-AF4) cells
test.summary: Combination proliferation assay with Compound A2 (CellTiter-Glo, Chou-Talalay CI)
Assay type: cell-based, human
conditions.used: MV4-11; 7 Day Cotreatment (Example 1)
property.label: Combination effect with Compound A2

compound: CC(C)(C)c1cc(NC(=O)Nc2ccc(-c3cn4c(n3)sc3cc(OCCN5CCOCC5)ccc34)cc2)no1
reported.result: synergy
//
compound: N[C@@H]1C[C@H]1c1ccccc1 (racemic)
reported.result: synergy
//
compound: CC1(C)CCC(c2ccc(Cl)cc2)=C(CN2CCN(c3ccc(C(=O)NS(=O)(=O)c4ccc(N[C@H](CCN5CCOCC5)CSc5ccccc5)c(S(=O)(=O)C(F)(F)F)c4)cc3)CC2)C1
reported.result: synergy

====

Test system: RS4-11 (MLL-AF4) cells
test.summary: Example 7 retest: EPZ-5676 pre-treatment, second compound 72 h, Cell Titer Glo, growth inhibition
Type: cell-based
conditions.used: Homo sapiens, 240 h, single agent, read-out: EPZ-5676 10-day IC50
pIC50: −log10 of the molar value.
property.label: pIC50

Task item: Tell me reported pIC50 for CC(C)N(C[C@H]1O[C@@H](n2cnc3c(N)ncnc32)[C@H](O)[C@@H]1O)[C@H]1C[C@@H](CCc2nc3cc(C(C)(C)C)ccc3[nH]2)C1 , tested with RS4-11 (MLL-AF4) cells.
Reply: < 5.52

====

System: MOLM-13 (MLL-AF9) cells
test.summary: Combination proliferation assay with Compound A2 (CellTiter-Glo, Chou-Talalay CI)
Format: cell-based, human
conditions.used: MOLM-13 (MLL-AF9); 7 Day Cotreatment Model
property.label: Combination effect with Compound A2 (Table 4)

compound: Nc1ccn([C@@H]2O[C@H](CO)[C@@H](O)[C@@H]2O)c(=O)n1 [Ara-C, cytarabine]
reported.result: Strong Synergy
//
compound: Nc1ncn([C@@H]2O[C@H](CO)[C@@H](O)[C@H]2O)c(=O)n1 [Azacitidine]
reported.result: Strong Synergy
//
compound: N[C@@H]1C[C@H]1c1ccccc1 (racemic) [Tranylcypromine]
reported.result: Strong Synergy

====

Test system: OCI-AML-4 (MLL-ENL) cells
test.summary: Example 7 primary screen: 300 nM EPZ-5676 pre-treatment, second compound 72 h, ATPLite, GI100 shift
Format: cell-based
conditions.used: 264 h; OCI-AML-4; single agent; read-out: EPZ-5676 11-day (Primary screen) IC50
pIC50: −log10 of the molar value.
property.label: pIC50

Task item: State its pIC50 on OCI-AML-4 (MLL-ENL) cells: CC(C)N(C[C@H]1O[C@@H](n2cnc3c(N)ncnc32)[C@H](O)[C@@H]1O)[C@H]1C[C@@H](CCc2nc3cc(C(C)(C)C)ccc3[nH]2)C1
Reply: < 5.52

====

Tested on: SKM-1 cells
test.summary: Example 6 combination screen: 300 nM EPZ-5676 pre-treatment, second compound 72 h, ATPLite, IC50 shift
Type: cell-based, human
conditions.used: SKM-1 cells; 300 nM EPZ-5676 pre-treatment (4 + 3 days) vs DMSO, then 2nd compound 72 h; ATPLite; IC50 shift of 2nd compound
property.label: Summary of Combination Studies: SKM-1

Task item: // returns reported Summary of Combination Studies: SKM-1 for input CCN(CC)CCNC(=O)c1c(C)[nH]c(/C=C2\C(=O)Nc3ccc(F)cc32)c1C [Sunitinib Malate]
Reply: 2.0
